meta.source: the supplement of paper PMC10883282

Tested on: HS729
method-description: relative viability vs DMSO control (72 h) (fraction); higher = more viable cells
experimental-parameters: 0.00051 µM
Could you please report measured relative viability for the items listed next?
One number for each entry.

As a guide, the following entries are already answered.
{"columns": ["molecule", "experimental-readout", "reported-measurement"],
 "data": [
  ["C#Cc1cccc(Nc2ncnc3cc4c(cc23)OCCOCCOCCO4)c1 [Icotinib]", "relative viability", 1.09],
  ["Cc1[nH]c(/C=C2\\C(=O)Nc3ccccc32)c(C)c1CCC(=O)O [Orantinib]", "relative viability", 1.09],
  ["O=C1CCc2c(Oc3ccc4c(c3)[C@@H]3[C@H](O4)[C@H]3c3nc4cc(C(F)(F)F)ccc4[nH]3)ccnc2N1 [Lifirafenib]", "relative viability", 0.921],
  ["CNC(=O)c1c(C)oc2cc(Oc3ncnc4cc(OC)c(OC)cc34)ccc12 [Fruquintinib]", "relative viability", 1],
  ["COc1cc(N2CCC(N3CCN(C)CC3)CC2)ccc1Nc1ncc(Cl)c(Nc2ccccc2P(C)(C)=O)n1 [Brigatinib]", "relative viability", 0.925]
]}

Required: relative viability, one value per molecule below.
1. Cn1cnc2c(F)c(Nc3ccc(Br)cc3Cl)c(C(=O)NOCCO)cc21 [Selumetinib]
2. CCOc1cc2ncc(C#N)c(Nc3ccc(OCc4ccccn4)c(Cl)c3)c2cc1NC(=O)/C=C/CN(C)C [Neratinib]
3. CN(C)C(=O)c1cc2cnc(Nc3ccc(N4CCNCC4)cn3)nc2n1C1CCCC1 [Ribociclib]
4. Cc1cc2c(F)c(Oc3ncnn4cc(OC[C@@H](C)OC(=O)[C@H](C)N)c(C)c34)ccc2[nH]1 [Brivanib_alaninate]
5. CNC(=O)c1cccc2cc(Oc3ccnc4cc(OCC5(N)CC5)c(OC)cc34)ccc12 [Lucitanib]
6. CS(=O)(=O)CCNCc1ccc(-c2ccc3ncnc(Nc4ccc(OCc5cccc(F)c5)c(Cl)c4)c3c2)o1 [Lapatinib]

A:
[0.929, 0.922, 0.877, 0.893, 1.07, 0.935]

* * *

Could you please report measured relative viability for the items listed next?
Tested on: RD
method-description: relative viability vs DMSO control (72 h) (fraction); higher = more viable cells
experimental-parameters: 0.00017 µM
Give bare numbers.

Required: relative viability, one value per compound below.
1. O=C1CCc2c(Oc3ccc4c(c3)[C@@H]3[C@H](O4)[C@H]3c3nc4cc(C(F)(F)F)ccc4[nH]3)ccnc2N1
2. COC(=O)c1ccc2c(c1)NC(=O)/C2=C(\Nc1ccc(N(C)C(=O)CN2CCN(C)CC2)cc1)c1ccccc1
3. O=C(c1ccc(F)c(F)c1Nc1ccc(I)cc1F)N1CC(O)([C@@H]2CCCCN2)C1

A:
1: 1.08; 2: 1.03; 3: 1.1

Required: relative viability, one value per compound below.
1. Cc1cc(F)c(C(=O)Nc2cccc(-c3nncn3C(C)C)n2)cc1-n1cnc(C2CC2)c1
2. CN(C)CCCOc1ccc(-c2ccc3ncc4c(c3c2)n(C2CCOCC2)c(=O)n4C)cn1
3. CCS(=O)(=O)N1CC(CC#N)(n2cc(-c3ncnc4[nH]ccc34)cn2)C1

A:
1.11
1.04
1.02

* * *

System: SW872
method-description: relative viability vs DMSO control (72 h) (fraction); higher = more viable cells
experimental-parameters: 0.00051 µM
Could you please report measured relative viability for the items listed next?
Answers are plain numbers.

{"columns": ["compound-string", "system-name", "relative viability"],
 "data": [
  ["COc1cc(Nc2ncc3c(n2)-c2ccc(Cl)cc2C(c2c(F)cccc2OC)=NC3)ccc1C(=O)O", "SW872", 0.974],
  ["C#Cc1cccc(Nc2ncnc3cc4c(cc23)OCCOCCOCCO4)c1", "SW872", 1.14],
  ["Cc1cc(F)c(C(=O)Nc2cccc(-c3nncn3C(C)C)n2)cc1-n1cnc(C2CC2)c1", "SW872", 1],
  ["C=CC(=O)N1CCC(CNc2ncnc(N)c2-c2ccc(Oc3ccccc3)cc2)CC1", "SW872", 1.06]
]}

Next, consider the following compound.
Q: Given the entry CCOc1cc2ncc(C#N)c(Nc3ccc(OCc4ccccn4)c(Cl)c3)c2cc1NC(=O)/C=C/CN(C)C , report its measured relative viability.
A: 1.02
